Data provenance is patent US6548494B1.

measured.on: UniProt P09874
Sequence (P09874 whole entry): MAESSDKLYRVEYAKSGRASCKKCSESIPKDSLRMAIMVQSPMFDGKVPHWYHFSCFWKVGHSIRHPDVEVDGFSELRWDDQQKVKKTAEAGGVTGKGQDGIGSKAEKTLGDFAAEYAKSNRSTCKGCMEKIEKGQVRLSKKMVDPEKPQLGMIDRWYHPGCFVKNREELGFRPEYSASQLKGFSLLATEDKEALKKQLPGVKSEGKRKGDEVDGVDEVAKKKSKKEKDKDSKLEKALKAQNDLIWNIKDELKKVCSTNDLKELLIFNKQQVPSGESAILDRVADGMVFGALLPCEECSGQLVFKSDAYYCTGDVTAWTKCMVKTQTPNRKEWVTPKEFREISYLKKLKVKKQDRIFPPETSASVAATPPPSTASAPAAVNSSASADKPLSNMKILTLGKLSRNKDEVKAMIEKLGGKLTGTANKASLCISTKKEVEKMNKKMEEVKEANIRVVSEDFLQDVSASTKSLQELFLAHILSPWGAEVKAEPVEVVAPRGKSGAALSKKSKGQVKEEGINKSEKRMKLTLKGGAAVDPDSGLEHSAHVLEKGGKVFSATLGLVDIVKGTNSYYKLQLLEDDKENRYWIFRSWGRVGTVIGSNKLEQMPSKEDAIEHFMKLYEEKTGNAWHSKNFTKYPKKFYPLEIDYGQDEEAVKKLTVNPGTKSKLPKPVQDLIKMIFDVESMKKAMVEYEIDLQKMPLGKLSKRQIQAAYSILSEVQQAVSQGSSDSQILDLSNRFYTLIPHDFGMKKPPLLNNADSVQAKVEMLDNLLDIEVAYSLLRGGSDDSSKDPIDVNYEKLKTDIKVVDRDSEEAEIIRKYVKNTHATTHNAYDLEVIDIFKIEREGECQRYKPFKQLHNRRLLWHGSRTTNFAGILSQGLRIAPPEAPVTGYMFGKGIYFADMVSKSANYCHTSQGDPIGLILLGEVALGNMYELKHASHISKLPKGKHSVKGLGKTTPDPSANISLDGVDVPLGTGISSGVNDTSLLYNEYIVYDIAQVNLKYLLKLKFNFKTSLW
procedure.text: PARP enzyme inhibition assay
Assay type: biochemical
run.conditions: 20 nM purified PARP (5 nM for tight-binding inhibitors), 500 μM NAD+, 25° C.; several values in one cell = repeat determinations; read-out: Inhibition Constant Ki
attribute.measured: Ki (nM)
Your answer should be a plain number; it is taken to be in nM.

// worked examples, Ki included
CCOC(OCC)c1ccc(-c2nc3cc(F)cc4c3n2CCNC4=O)cc1 [Example 79] = 11
O=C1NCCn2c(-c3ccc(CCOC4CCCCO4)cc3)nc3cccc1c32 (centres unmarked) [Example 125] = 11
O=C1NCCn2c(-c3ccc(/C=C/c4ccccc4)cc3)nc3cccc1c32 [Example 247c] = 16
CN(Cc1ccccc1)Cc1ccc(-c2nc3cccc4c3n2CCNC4=O)cc1 [Example 199] = 6.8
COc1ccc(-c2cc3cccc4c3n2CCNC4=O)cc1 [Example 35] = 8.2

What value of measured Ki is listed for O=C1NCCn2c(-c3cccc(CN4CCCC4)c3)nc3cccc1c32 [Example 60] ?
6.2

Here is the next compound: N#Cc1cccc(-c2nc3cccc4c3n2CCNC4=O)c1 [Example 73]
10

Here is the next compound: O=Cc1c(-c2ccc(Cl)cc2)n2c3c(cccc13)C(=O)NCC2 [Example 38]
43

Here is the next compound: CN1CCC(c2ccc(-c3nc4cccc5c4n3CCNC5=O)cc2)CC1 [Example 141]
5.5
